Below, each entry is listed with its recorded IC50.
Target: KIAA1363 (Mus musculus, UniProt Q8BLF1)
Sequence (Q8BLF1 whole entry): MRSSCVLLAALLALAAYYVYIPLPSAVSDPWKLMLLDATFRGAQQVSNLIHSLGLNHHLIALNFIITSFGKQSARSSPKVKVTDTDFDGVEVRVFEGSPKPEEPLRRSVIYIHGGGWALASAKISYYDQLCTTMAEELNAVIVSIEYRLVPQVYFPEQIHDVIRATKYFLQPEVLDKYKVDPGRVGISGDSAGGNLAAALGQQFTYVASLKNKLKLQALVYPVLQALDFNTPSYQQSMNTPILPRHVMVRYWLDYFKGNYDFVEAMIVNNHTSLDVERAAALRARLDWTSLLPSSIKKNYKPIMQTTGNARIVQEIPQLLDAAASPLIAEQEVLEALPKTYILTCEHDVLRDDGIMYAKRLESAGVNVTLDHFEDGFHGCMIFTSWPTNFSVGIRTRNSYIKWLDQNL
Experiment: Proteome-wide serine hydrolase selectivity screen, competition with RPFP active site labeling
Conditions: inhibition of RPFP labeling, read-out: KIAA IC50
Report the figure in µM without appending any unit label.

Examples with their reported IC50 follow.
- structure_as_smiles: "O=C(CCCCCCc1ccccc1)c1nnc(-c2ccccn2)o1"
  unit_of_measure: "µM"
  IC50: 50
- structure_as_smiles: "O=C(CCCCCCCCc1ccccc1)c1nnc(-c2ccccn2)o1"
  unit_of_measure: "µM"
  IC50: 3
- structure_as_smiles: "O=C(CCCCCc1ccccc1)c1nnc(-c2ccccn2)o1"
  unit_of_measure: "µM"
  IC50: 90

Pending compound:
Which IC50 value is on record for O=C(CCCCCCCc1ccccc1)c1nnc(-c2ccccn2)o1 ?
60
